System: FXR:RXRa (NR concentration 270 nM, RXRa partner concentration 90 nM)
protocol_details: PBM binding z-score (relative to random genomic background probes); higher = stronger binding; sequences stand for … in GC…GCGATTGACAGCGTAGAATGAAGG
quantity_kind: PBM binding z-score
Keep it simple and answer with nothing but the number.

Which PBM binding z-score is listed for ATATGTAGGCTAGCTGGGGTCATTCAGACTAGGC ?
3.46

Which PBM binding z-score is listed for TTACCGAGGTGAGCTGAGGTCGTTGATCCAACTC ?
1.71

Which PBM binding z-score is listed for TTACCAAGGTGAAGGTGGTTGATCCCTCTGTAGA ?
0.468

Which PBM binding z-score is listed for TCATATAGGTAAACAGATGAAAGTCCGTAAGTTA ?
1.23

Which PBM binding z-score is listed for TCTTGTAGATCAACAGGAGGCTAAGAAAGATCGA ?
-0.113

Which PBM binding z-score is listed for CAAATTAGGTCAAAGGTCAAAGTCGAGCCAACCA ?
8.64

Which PBM binding z-score is listed for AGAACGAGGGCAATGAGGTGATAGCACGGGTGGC ?
0.341

Which PBM binding z-score is listed for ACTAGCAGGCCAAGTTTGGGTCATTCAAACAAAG ?
0.394

Which PBM binding z-score is listed for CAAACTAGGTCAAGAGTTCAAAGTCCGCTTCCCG ?
5.67

Which PBM binding z-score is listed for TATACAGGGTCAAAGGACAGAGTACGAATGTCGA ?
7.39

Which PBM binding z-score is listed for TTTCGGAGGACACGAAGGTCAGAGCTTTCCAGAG ?
1.83

Which PBM binding z-score is listed for AGAACGGGGGCAATGAGTTGATAGCACGGGTGGC ?
2.35

Which PBM binding z-score is listed for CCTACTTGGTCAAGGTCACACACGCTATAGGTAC ?
4.25

Which PBM binding z-score is listed for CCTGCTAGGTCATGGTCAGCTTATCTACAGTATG ?
3.54

Which PBM binding z-score is listed for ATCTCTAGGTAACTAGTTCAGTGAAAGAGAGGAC ?
0.133

Which PBM binding z-score is listed for TTACCAAGGTGAAGGTCTTTGATCCCTCTGTAGA ?
0.557

Which PBM binding z-score is listed for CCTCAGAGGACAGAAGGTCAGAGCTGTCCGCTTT ?
1.31

Which PBM binding z-score is listed for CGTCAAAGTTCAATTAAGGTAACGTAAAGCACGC ?
6.45

Which PBM binding z-score is listed for CAAACTAGGTCACGCAAGGTCAAAGTCGAATGAC ?
7.41

Which PBM binding z-score is listed for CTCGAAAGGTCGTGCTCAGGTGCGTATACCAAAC ?
4.69

Which PBM binding z-score is listed for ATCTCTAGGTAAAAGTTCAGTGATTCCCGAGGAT ?
0.618

Which PBM binding z-score is listed for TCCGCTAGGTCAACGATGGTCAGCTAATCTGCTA ?
2.89

Which PBM binding z-score is listed for CAAACTAGGTCAACGTCAAAGTCGGTTTGTGCCA ?
3.78

Which PBM binding z-score is listed for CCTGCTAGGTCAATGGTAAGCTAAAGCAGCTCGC ?
2.96

Which PBM binding z-score is listed for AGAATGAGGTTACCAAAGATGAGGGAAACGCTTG ?
1.89

Which PBM binding z-score is listed for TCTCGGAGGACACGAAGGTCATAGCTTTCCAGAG ?
2.87

Which PBM binding z-score is listed for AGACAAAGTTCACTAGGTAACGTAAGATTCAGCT ?
5.15
